// provenance: ChEMBL document CHEMBL1125234

# method_description: In vitro growth inhibitory activity against KB human epidermoid carcinoma cells.
# Type: functional
recorded_endpoint: log10 of IC50 (log10 of the value in ng/mL)
Short version: log10 scale, IC50, ng/mL.

Q: // log10 of IC50 lookup, key: CN(Cc1cnc2nc(N)nc(N)c2n1)c1ccc(C(=O)N[C@@H](CCC(=O)O)C(=O)O)cc1 [METHOTREXATE]
A: 0.70

Q: Request the reported log10 of IC50 associated with Nc1nc(N)c2c(n1)NCC2CCCc1ccc(C(=O)N[C@H](CCC(=O)O)C(=O)O)cc1 (stereo not given in full)
A: -0.31

Q: Recorded log10 of IC50 of CC(CCC1CNc2nc(N)nc(N)c21)c1ccc(C(=O)N[C@H](CCC(=O)O)C(=O)O)cc1 (stereo not given in full) , please.
A: -0.52

Q: What log10 of IC50 value was documented for this compound, Nc1nc(N)c2c(CCCc3ccc(C(=O)N[C@H](CCC(=O)O)C(=O)O)cc3)c[nH]c2n1 ?
A: -0.57

Q: Reported log10 of IC50, compound CC(CCc1c[nH]c2nc(N)nc(N)c12)c1ccc(C(=O)N[C@H](CCC(=O)O)C(=O)O)cc1 (stereo not given in full) : ____
A: -0.23
